Collected Kd values appear next to each entry.
# MEASURED ON: T1, human PCSK9 (proprotein convertase subtilisin kexin type 9) (human, UniProt Q8NBP7 31-692)
# T1 construct: Directly immobilized (SPR ProteOn), biotinylated (BLI), or in solution, depending on the assay; also called hPCSK9
# TEST SUMMARY: BLI, biotinylated hPCSK9 on sensor tips
ASSAY READOUT: Kd (nM)

1. 2381B08 (designed binder, Anti-PCSK9 Adnectin, His6-tagged) MGVSDVPRDLEVVAATPTSLLISWDAPADGGYGYYRITYGETGGNSPVQEFTVPSSKGTATISGLKPGVDYTITVYAVEYTFPGAGYYHRPISINYRTEIDKPSQHHHHHH : 4.11
2. 2971E02 (designed binder, Anti-PCSK9 Adnectin, His6-tagged) MGVSDVPRDLEVVAATPTSLLISWDAPSDDYGYYRITYGETGGNSPVQEFTVPIGKGTATISGLKPGVDYTITVYAVEFPWPHAGYYHRPISINYRTEIDKPSQHHHHHH : 1.78
3. 2382G04 (designed binder, Anti-PCSK9 Adnectin, His6-tagged) MGVSDVPRDLEVVAATPTSLLISWDAPAGGGYGYYRITYGETGGNSPVQEFTVPSSKGTATISGLKPGVDYTITVYAVEFDFPGAGYYHRPISINYRTEIDKPSQHHHHHH : 1.11
4. 2451H07 (designed binder, Anti-PCSK9 Adnectin, His6-tagged) MGITDVPRDLEVVAATPTSLLISWNPPDVNYGYYRITYGETGGNSPLQEFTVPVSKGTATISGLKPGVDYTITVYAVEYPYAHAGYYHRPISINYRTEIDKPSQHHHHHH : 2.08
